assay: chemical genetic growth profiling, strain panel (AID 1159580);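 also: tested at 20 µM; growth read once vehicle control cultures reached saturation at 30 °C; 1 = growth at the plate median or of vehicle wells; lower values mean less growth of the strain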; conditions: S. cerevisiae deletion strains, growth OD, locus YGL078C, strain dbp3, hits give low values
The whole screen tested about 5,500 compounds, of which about 2,000 (36%) were called active. Another 18% or so got no clear call; they are omitted. The list shows a part of the results.
observable: normalized growth
One number for each entry.

Here's what some known entries look like.
| molecular string | normalized growth |
| --- | --- |
| CCCCNc1ccc(C(=O)OCCN(C)C)cc1 | 1.02 |
| CCCCOC(=O)c1ccc(N)cc1 | 0.96 |
| CCCCOC(=O)c1ccccc1C(=O)OCc1ccccc1 | 0.968 |

Return reported normalized growth values for all items listed beneath this line.
1. NC[C@@H]1CC[C@@H](N)[C@@H](O[C@H]2[C@H](O)[C@@H](O[C@H]3O[C@H](CO)[C@@H](O)[C@H](N)[C@H]3O)[C@H](N)C[C@@H]2N)O1
2. CCN(CC)CCOC(=O)c1ccc(N)cc1
3. CCCCN(CCCC)CCCOC(=O)c1ccc(N)cc1
4. CN1C(C(=O)Nc2ccccn2)=C(O)c2ccccc2S1(=O)=O
5. CC[N+](CC)(CC)CCOc1cccc(OCC[N+](CC)(CC)CC)c1OCC[N+](CC)(CC)CC

Ans:
[0.994, 0.997, 0.992, 0.959, 1]

COc1ccc(CCN2CCC(Nc3nc4ccccc4n3Cc3ccc(F)cc3)CC2)cc1 has a reported normalized growth of 0.985
